target: HLA-A11 (A*1101) (Homo sapiens, UniProt P04439, A114D/D185E/E176A/F33Y/L180Q/S129P/T187R); test: biochemical; type: binding
pIC50: −log10 of the molar value. No end group written: not given here.
Would you mind labelling by pIC50? At or over 7 is condition met, under is condition not met.

The examples below pair each entry with its known result.
SEQUENCE_CODE	TEST_SYSTEM	CLASS_LABEL
KSLFGMSLMK [Peptide 1587.13]	HLA-A11 (A*1101) (Homo sapiens, UniProt P04439, A114D/D185E/E176A/F33Y/L180Q/S129P/T187R)	condition met
SVYGDTLEK [Peptide 78.0277]	HLA-A11 (A*1101) (Homo sapiens, UniProt P04439, A114D/D185E/E176A/F33Y/L180Q/S129P/T187R)	condition met
GVSIEWRLRR [Peptide 9017.0220]	HLA-A11 (A*1101) (Homo sapiens, UniProt P04439, A114D/D185E/E176A/F33Y/L180Q/S129P/T187R)	condition not met
KVCSGVDYR [Peptide 1589.35]	HLA-A11 (A*1101) (Homo sapiens, UniProt P04439, A114D/D185E/E176A/F33Y/L180Q/S129P/T187R)	condition not met
FTAFLVAFK [Peptide 88.0389]	HLA-A11 (A*1101) (Homo sapiens, UniProt P04439, A114D/D185E/E176A/F33Y/L180Q/S129P/T187R)	condition met
TQQLQDLFK [Peptide 88.0374]	HLA-A11 (A*1101) (Homo sapiens, UniProt P04439, A114D/D185E/E176A/F33Y/L180Q/S129P/T187R)	condition met
QVLHLLKRK [Peptide 88.0365]	HLA-A11 (A*1101) (Homo sapiens, UniProt P04439, A114D/D185E/E176A/F33Y/L180Q/S129P/T187R)	condition not met
LLYGAANTGK [Peptide 1587.12]	HLA-A11 (A*1101) (Homo sapiens, UniProt P04439, A114D/D185E/E176A/F33Y/L180Q/S129P/T187R)	condition met

Answer whether pIC50 of HIGPGRAFY [Peptide 1595.03] is greater than or equal to 7.
condition not met

Answer whether pIC50 of ATMCRHYKR [Peptide 1587.08] is greater than or equal to 7.
condition met

Answer whether pIC50 of ILYQSNPYPK [Peptide 9017.0198] is greater than or equal to 7.
condition met

Answer whether pIC50 of KISEYRHYQY [Peptide 1571.14] is greater than or equal to 7.
condition not met

Answer whether pIC50 of VTVYYGVPVRR [Peptide 1525.07] is greater than or equal to 7.
condition not met

Answer whether pIC50 of VVFGILIKRK [Peptide 9012.0246] is greater than or equal to 7.
condition met

Answer whether pIC50 of MSFLTALKR [Peptide 1587.11] is greater than or equal to 7.
condition met

Answer whether pIC50 of KLTEDRWNK [Peptide 9017.0108] is greater than or equal to 7.
condition met

Answer whether pIC50 of SVICFVNSK [Peptide 1587.15] is greater than or equal to 7.
condition met

Answer whether pIC50 of SSIVGWPAVR [Peptide 9017.0185] is greater than or equal to 7.
condition met
